Where do the numbers come from? From patent US8993717B2.

# testTarget: Gadd45β/MKK7 interaction (Homo sapiens, UniProt O14733)
# Construct: The GST-fused full-length kinase was coated for 16 h at 4° C., at a concentration of 42 nM; made in house
# assayNotes: ELISA competition assay of biotin-hGadd45β binding to coated GST-MKK7
Square brackets hold non-standard residues; d marks the D form. Peptide text beside a SMILES is read from it.
readoutName: IC50
Could you kindly put the unit after your number?

Input: Notebook entry, Gadd45β/MKK7 interaction (Homo sapiens, UniProt O14733) assay: IC50 of CC(=O)N[C@H](Cc1ccc(O)cc1)C(=O)N[C@H](CCCNC(=N)N)C(=O)N[C@H](Cc1ccccc1)C(N)=O [Compound 17, Ac-D-Tyr-D-Arg-D-Phe-NH2] (Ac-[dY]-[dR]-[dF]-NH2) = ?
Output: 0.157 nM

---

# testTarget: Gadd45β/MKK7 interaction (Homo sapiens)
# Construct: The GST-fused full-length kinase was coated for 16 h at 4° C., at a concentration of 42 nM; made in house
# Sequence (O14733 1-419): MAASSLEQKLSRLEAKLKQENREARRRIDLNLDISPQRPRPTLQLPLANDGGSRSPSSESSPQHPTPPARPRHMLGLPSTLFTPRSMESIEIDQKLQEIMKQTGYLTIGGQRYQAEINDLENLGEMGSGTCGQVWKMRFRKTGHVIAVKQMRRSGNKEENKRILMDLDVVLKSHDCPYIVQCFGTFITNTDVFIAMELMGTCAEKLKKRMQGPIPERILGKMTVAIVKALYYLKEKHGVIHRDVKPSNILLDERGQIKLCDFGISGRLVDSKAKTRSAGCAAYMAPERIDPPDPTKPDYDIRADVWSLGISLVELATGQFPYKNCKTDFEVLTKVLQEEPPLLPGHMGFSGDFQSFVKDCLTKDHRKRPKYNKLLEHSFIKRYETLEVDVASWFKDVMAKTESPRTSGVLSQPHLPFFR
# assayNotes: ELISA competition assay after 48-hr pre-incubation with human serum at 37° C.
# Assay type: binding
Square brackets hold non-standard residues; d marks the D form. Peptide text beside a SMILES is read from it. * marks the point of attachment. Cbz = O=C(OCc1ccccc1)*
readoutName: IC50 (nM)
Note: unit nM is implicit; provide only the numeric part.

Input: Item N=C(N)NCCC[C@@H](NC(=O)[C@@H](CCC(=O)O)NC(=O)[C@@H](Cc1ccc(O)cc1)NC(=O)OCc1ccccc1)C(=O)N[C@H](Cc1ccccc1)C(N)=O [Compound 9, Z-D-Tyr-D-Glu-D-Arg-D-Phe-NH2] (Cbz-[dY][dE][dR][dF]-NH2) has what recorded IC50?
Output: 0.18

Continuing:
Input: Item NC(=O)[C@@H](Cc1ccccc1)NC(=O)[C@@H](Cc1c[nH]cn1)NC(=O)[C@@H](CC(=O)O)NC(=O)[C@@H](Cc1ccc(O)cc1)NC(=O)OCc1ccccc1 [Compound 1, Z-Tyr-Asp-His-Phe-NH2] (Cbz-[dY][dD][dH][dF]-NH2) has what recorded IC50?
Output: 0.19

---

# testTarget: Gadd45β/MKK7 interaction (Homo sapiens, UniProt O14733)
# Construct: The GST-fused full-length kinase was coated for 16 h at 4° C., at a concentration of 42 nM; made in house
# Sequence (O14733 1-419): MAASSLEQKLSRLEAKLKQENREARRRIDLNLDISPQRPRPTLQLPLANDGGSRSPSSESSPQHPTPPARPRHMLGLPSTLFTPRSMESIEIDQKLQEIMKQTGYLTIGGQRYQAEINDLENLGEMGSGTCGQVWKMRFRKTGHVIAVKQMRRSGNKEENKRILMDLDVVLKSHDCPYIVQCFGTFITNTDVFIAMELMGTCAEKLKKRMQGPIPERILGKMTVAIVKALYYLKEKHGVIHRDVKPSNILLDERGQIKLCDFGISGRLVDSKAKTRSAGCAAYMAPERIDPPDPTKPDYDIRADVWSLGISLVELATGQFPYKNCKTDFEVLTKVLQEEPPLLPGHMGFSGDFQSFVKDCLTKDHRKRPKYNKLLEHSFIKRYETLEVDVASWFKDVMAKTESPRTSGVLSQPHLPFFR
# assayNotes: ELISA competition assay of biotin-hGadd45β binding to coated GST-MKK7
# measurementConditions: Table I, initial Elisa screening; coated MKK7 42 nM, biotin-hGadd45β 21 nM; competitor 21 nM, sub-libraries 42 nM
* marks the point of attachment. Fmoc = O=C(OCC1c2ccccc2-c2ccccc21)*; βAla = NCCC(=O)O
readoutName: % Inhibition of Gadd45β-MKK7 binding (%)
Note: unit % is implicit; provide only the numeric part.

Recorded % Inhibition of Gadd45β-MKK7 binding, per entry:
Input: Item Fmoc(βAla)2-YDHR-NH2 ({Fmoc-βAla-βAla}-YDHR-NH2; SMILES N=C(N)NCCC[C@H](NC(=O)[C@H](Cc1c[nH]cn1)NC(=O)[C@H](CC(=O)O)NC(=O)[C@H](Cc1ccc(O)cc1)NC(=O)CCNC(=O)CCNC(=O)OCC1c2ccccc2-c2ccccc21)C(N)=O) has what recorded % Inhibition of Gadd45β-MKK7 binding?
Output: 2

Input: Similarly, Fmoc(βAla)2-YDHD-NH2 ({Fmoc-βAla-βAla}-YDHD-NH2; SMILES NC(=O)[C@H](CC(=O)O)NC(=O)[C@H](Cc1c[nH]cn1)NC(=O)[C@H](CC(=O)O)NC(=O)[C@H](Cc1ccc(O)cc1)NC(=O)CCNC(=O)CCNC(=O)OCC1c2ccccc2-c2ccccc21) ?
Output: 0

Input: Similarly, Fmoc(βAla)2-YDHS-NH2 ({Fmoc-βAla-βAla}-YDHS-NH2; SMILES NC(=O)[C@H](CO)NC(=O)[C@H](Cc1c[nH]cn1)NC(=O)[C@H](CC(=O)O)NC(=O)[C@H](Cc1ccc(O)cc1)NC(=O)CCNC(=O)CCNC(=O)OCC1c2ccccc2-c2ccccc21) ?
Output: 0

Continuing:
Input: Item Fmoc(βAla)2-YDHH-NH2 ({Fmoc-βAla-βAla}-YDHH-NH2; SMILES NC(=O)[C@H](Cc1c[nH]cn1)NC(=O)[C@H](Cc1c[nH]cn1)NC(=O)[C@H](CC(=O)O)NC(=O)[C@H](Cc1ccc(O)cc1)NC(=O)CCNC(=O)CCNC(=O)OCC1c2ccccc2-c2ccccc21) has what recorded % Inhibition of Gadd45β-MKK7 binding?
Output: 40

Input: Similarly, Fmoc(βAla)2-YDHM-NH2 ({Fmoc-βAla-βAla}-YDHM-NH2; SMILES CSCC[C@H](NC(=O)[C@H](Cc1c[nH]cn1)NC(=O)[C@H](CC(=O)O)NC(=O)[C@H](Cc1ccc(O)cc1)NC(=O)CCNC(=O)CCNC(=O)OCC1c2ccccc2-c2ccccc21)C(N)=O) ?
Output: 14

Input: Similarly, Fmoc(βAla)2-YDHA-NH2 ({Fmoc-βAla-βAla}-YDHA-NH2; SMILES C[C@H](NC(=O)[C@H](Cc1c[nH]cn1)NC(=O)[C@H](CC(=O)O)NC(=O)[C@H](Cc1ccc(O)cc1)NC(=O)CCNC(=O)CCNC(=O)OCC1c2ccccc2-c2ccccc21)C(N)=O) ?
Output: 15
